# TARGET_OR_TEST_SYSTEM: LHRH receptor (Rattus norvegicus, UniProt P30969)
# Construct: endogenous in cells
# Sequence (P30969 whole entry): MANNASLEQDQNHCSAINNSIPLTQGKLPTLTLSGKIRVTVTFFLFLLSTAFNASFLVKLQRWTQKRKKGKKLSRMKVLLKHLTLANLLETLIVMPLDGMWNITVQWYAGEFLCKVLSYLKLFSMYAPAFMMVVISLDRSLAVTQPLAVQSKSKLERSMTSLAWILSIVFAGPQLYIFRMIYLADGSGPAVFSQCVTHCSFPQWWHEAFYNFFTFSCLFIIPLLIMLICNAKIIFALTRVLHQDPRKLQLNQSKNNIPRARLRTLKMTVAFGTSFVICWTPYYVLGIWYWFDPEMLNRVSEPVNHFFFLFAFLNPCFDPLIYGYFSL
# ASSAY_SUMMARY: in vitro LHRH antagonist potency (pA2) against the agonist leuprolide
# Assay type: cell-based
# COND: negative logarithm of the antagonist concentration which shifts the response curve produced by the agonist leuprolide to two-fold higher concentration
# Description: Representative compounds of the present invention were evaluated in in vitro tests for receptor binding (pKI) and for LHRH antagonist potency (pA2). The tests employed the methods detailed in F. Haviv, et al., J. Med. Chem., 32: 2340-2344 (1989). […]
Where a SMILES comes first, the peptide text is derived from it. Side-chain parts run from the residue outwards. [ ]: non-standard residue; d: D form. The star is where a group is joined. Shikimoyl = O=C(C1=C[C@@H](O)[C@@H](O)[C@H](O)C1)*; dPhe(4-Cl) = N[C@H](Cc1ccc(Cl)cc1)C(=O)O; d2Nal = N[C@H](Cc1ccc2ccccc2c1)C(=O)O; Lys(iPr) = CC(C)NCCCC[C@H](N)C(=O)O; NMeY = CN[C@@H](Cc1ccc(O)cc1)C(=O)O; d3Pal = N[C@H](Cc1cccnc1)C(=O)O; Nicotinoyl = O=C(c1cccnc1)*; Picolinoyl = O=C(c1ccccn1)*; 2Furoyl = O=C(c1ccco1)*
Please provide measured Kb for the entries that follow.
Remember to quote the unit after the number.

Field Kb (system: LHRH receptor (Rattus norvegicus, UniProt P30969)) for entry CC(=O)N[C@H](Cc1ccc2ccccc2c1)C(=O)N[C@H](Cc1ccc(Cl)cc1)C(=O)N[C@H](Cc1cccnc1)C(=O)N[C@@H](CO)C(=O)N(C)[C@@H](Cc1ccc(O)cc1)C(=O)N[C@H](CCCCNC(=O)[C@@H](Cc1cccnc1)NC(=O)C1=C[C@@H](O)[C@@H](O)[C@H](O)C1)C(=O)N[C@@H](CC(C)C)C(=O)N[C@@H](CCCNC(=N)N)C(=O)N1CCC[C@H]1C(=O)N[C@H](C)C(N)=O [Example 48i] (Ac-[d2Nal][dPhe(4-Cl)][d3Pal]S[NMeY][dK]([d3Pal-Shikimoyl])LRP[dA]-NH2) = 0.0363 nM

# value of Kb, LHRH receptor (Rattus norvegicus, UniProt P30969), item CC(=O)N[C@H](Cc1ccc2ccccc2c1)C(=O)N[C@H](Cc1ccc(Cl)cc1)C(=O)N[C@H](Cc1cccnc1)C(=O)N[C@@H](CO)C(=O)N(C)[C@@H](Cc1ccc(O)cc1)C(=O)N[C@H](CCCCNC(=O)[C@@H](CO)NC(=O)c1cccnc1)C(=O)N[C@@H](CC(C)C)C(=O)N[C@@H](CCCCNC(C)C)C(=O)N1CCC[C@H]1C(=O)N[C@H](C)C(N)=O [Example 4c] (Ac-[d2Nal][dPhe(4-Cl)][d3Pal]S[NMeY][dK]([dS-Nicotinoyl])L[Lys(iPr)]P[dA]-NH2) = 0.0158 nM

Considering CC(=O)N[C@H](Cc1ccc2ccccc2c1)C(=O)N[C@H](Cc1ccc(Cl)cc1)C(=O)N[C@H](Cc1cccnc1)C(=O)N[C@@H](CO)C(=O)N(C)[C@@H](Cc1ccc(O)cc1)C(=O)N[C@H](CCCCNC(=O)[C@@H](CO)NC(=O)c1ccccn1)C(=O)N[C@@H](CC(C)C)C(=O)N[C@@H](CCCNC(=N)N)C(=O)N1CCC[C@H]1C(=O)N[C@H](C)C(N)=O [Example 48b] (Ac-[d2Nal][dPhe(4-Cl)][d3Pal]S[NMeY][dK]([dS-Picolinoyl])LRP[dA]-NH2) , its Kb with LHRH receptor (Rattus norvegicus, UniProt P30969) was recorded as 0.0372 nM

# CC(=O)N[C@H](Cc1ccc2ccccc2c1)C(=O)N[C@H](Cc1ccc(Cl)cc1)C(=O)N[C@H](Cc1cccnc1)C(=O)N[C@@H](CO)C(=O)N(C)[C@@H](Cc1ccc(O)cc1)C(=O)N[C@H](CCCCNC(=O)CNC(=O)c1ccco1)C(=O)N[C@@H](CC(C)C)C(=O)N[C@@H](CCCCNC(C)C)C(=O)N1CCC[C@H]1C(=O)N[C@H](C)C(N)=O [Example 6a] (Ac-[d2Nal][dPhe(4-Cl)][d3Pal]S[NMeY][dK]([Gly-2Furoyl])L[Lys(iPr)]P[dA]-NH2) with LHRH receptor (Rattus norvegicus, UniProt P30969): Kb is 0.0158 nM

Observed Kb, LHRH receptor (Rattus norvegicus, UniProt P30969), CC(=O)N[C@H](CO)C(=O)NCCCC[C@@H](NC(=O)[C@H](Cc1ccc(O)cc1)N(C)C(=O)[C@H](CO)NC(=O)[C@@H](Cc1cccnc1)NC(=O)[C@@H](Cc1ccc(Cl)cc1)NC(=O)[C@@H](Cc1ccc2ccccc2c1)NC(C)=O)C(=O)N[C@@H](CC(C)C)C(=O)N[C@@H](CCCNC(=N)N)C(=O)N1CCC[C@H]1C(=O)N[C@H](C)C(N)=O [Example 8] (Ac-[d2Nal][dPhe(4-Cl)][d3Pal]S[NMeY][dK]([dS-Ac])LRP[dA]-NH2) : 0.00794 nM

Hello, the source for this data is patent US5698522A, in case you need it.
